Sourced from patent US20230374132A1

kon values, listed per item
biological target: T1, human CD3 E&D complex protein (Sino Biological Inc., CT026H0323H) (human, UniProt P07766 23-126; P04234 22-105); assay: BLI, antibody on sensor
T1 construct: bought heterodimer; also called human CD3 protein (CT026H0323H)
T1 sequence (P07766 23-126, chain 1 of 2): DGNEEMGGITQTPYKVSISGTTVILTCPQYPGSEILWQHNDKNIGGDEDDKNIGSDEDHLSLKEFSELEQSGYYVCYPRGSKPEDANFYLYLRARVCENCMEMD
T1 sequence (P04234 22-105, chain 2 of 2): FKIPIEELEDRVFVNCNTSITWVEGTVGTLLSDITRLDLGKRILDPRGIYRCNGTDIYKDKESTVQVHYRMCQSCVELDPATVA

binder	measurement_unit	kon
hzsp34.97 (antibody, human IgG1, lambda, L234A L235A, V domains shown, CDR mutant of hzsp34.24; IgG1 L234A L235A, lambda) VH: EVQLVESGGGLVQPGGSLKLSCAASGFTFNTYAMNWVRQASGKGLEWVGRIRSKAGGYATYYADSVKDRFTISRDDSKSTLYLQMNSLKTEDTAVYYCARHGNFGQSYVSWFAYWGQGTTVTVSS VL: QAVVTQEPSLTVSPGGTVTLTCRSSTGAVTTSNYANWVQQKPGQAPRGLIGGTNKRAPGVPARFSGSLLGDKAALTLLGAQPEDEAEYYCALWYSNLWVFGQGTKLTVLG	M⁻¹ s⁻¹	278000
hzsp34.109 (antibody, human IgG1, lambda, L234A L235A, V domains shown, CDR mutant of hzsp34.24; IgG1 L234A L235A, lambda) VH: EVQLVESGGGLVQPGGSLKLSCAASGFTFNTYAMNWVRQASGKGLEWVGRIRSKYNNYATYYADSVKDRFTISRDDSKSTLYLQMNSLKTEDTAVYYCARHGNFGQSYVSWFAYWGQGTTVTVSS VL: QAVVTQEPSLTVSPGGTVTLTCRSSTGAVTTSNYANWVQQKPGQAPRGLIGGTNKRAPGVPARFSGSLLGDKAALTLLGAQPEDEAEYYCALWYRNLWVFGQGTKLTVLG	M⁻¹ s⁻¹	225000
sp34 (antibody, human IgG1, lambda, L234A L235A, V domains shown, mouse variable regions on human IgG1 L234A L235A and lambda constant regions; also called chimeric antibody sp34; mouse sp34) VH: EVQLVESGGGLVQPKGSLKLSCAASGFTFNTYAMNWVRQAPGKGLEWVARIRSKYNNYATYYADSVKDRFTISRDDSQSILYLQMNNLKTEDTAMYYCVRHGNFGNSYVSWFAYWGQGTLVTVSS VL: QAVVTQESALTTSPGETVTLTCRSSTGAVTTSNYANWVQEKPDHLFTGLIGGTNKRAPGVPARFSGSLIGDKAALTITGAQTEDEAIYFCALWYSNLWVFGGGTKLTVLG	M⁻¹ s⁻¹	246000
hzsp34.111 (antibody, human IgG1, lambda, L234A L235A, V domains shown, CDR mutant of hzsp34.24; IgG1 L234A L235A, lambda) VH: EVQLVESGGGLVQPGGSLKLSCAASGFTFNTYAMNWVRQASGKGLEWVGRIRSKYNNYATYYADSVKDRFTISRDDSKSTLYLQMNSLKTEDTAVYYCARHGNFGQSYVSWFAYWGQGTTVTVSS VL: QAVVTQEPSLTVSPGGTVTLTCRSSTGAVGGSNYANWVQQKPGQAPRGLIGGTNKRAPGVPARFSGSLLGDKAALTLLGAQPEDEAEYYCALWYSNLWVFGQGTKLTVLG	M⁻¹ s⁻¹	235000
hzsp34.105 (antibody, human IgG1, lambda, L234A L235A, V domains shown, CDR mutant of hzsp34.24; IgG1 L234A L235A, lambda) VH: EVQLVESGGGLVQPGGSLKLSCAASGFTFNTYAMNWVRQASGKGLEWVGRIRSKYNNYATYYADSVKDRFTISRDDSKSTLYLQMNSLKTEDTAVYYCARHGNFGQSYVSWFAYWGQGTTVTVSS VL: QAVVTQEPSLTVSPGGTVTLTCRSSTGAVTTRNYANWVQQKPGQAPRGLIGGTNKRAPGVPARFSGSLLGDKAALTLLGAQPEDEAEYYCALWYSNLWVFGQGTKLTVLG	M⁻¹ s⁻¹	235000
